System: blackgrass
Test: Test C postemergence
Format: in vivo, Alopecurus myosuroides
Conditions: Postemergence, 31 g ai/ha; scale 0 to 100 (0 no effect, 100 complete control); 13 to 15 days
measuredAttribute: Plant response rating, Blackgrass
Answers are plain numbers.

testsmiles=N#Cc1cccc(Oc2ncc(F)cn2)c1-n1cc(Br)cn1 assayvalue=0
testsmiles=N#Cc1cccc(Oc2ncc(F)cn2)c1-n1cc(I)cn1 assayvalue=5

Would you mind listing Plant response rating, Blackgrass for each of the following compounds?
1. N#Cc1cccc(Oc2ncc(F)cn2)c1-n1cc(Cl)cn1
2. FCc1cccc(Oc2ncc(Br)cn2)c1-n1cc(C(F)(F)F)cn1
3. CCOc1cnn(-c2c(C#N)cccc2Oc2ncc(F)cn2)c1

Result:
[0, 5, 0]
